Quick reference for ΔTm at 50 µM among some compounds
# target_entity: UniProtKB Q86WV6
# Sequence (Q86WV6 whole entry H232R): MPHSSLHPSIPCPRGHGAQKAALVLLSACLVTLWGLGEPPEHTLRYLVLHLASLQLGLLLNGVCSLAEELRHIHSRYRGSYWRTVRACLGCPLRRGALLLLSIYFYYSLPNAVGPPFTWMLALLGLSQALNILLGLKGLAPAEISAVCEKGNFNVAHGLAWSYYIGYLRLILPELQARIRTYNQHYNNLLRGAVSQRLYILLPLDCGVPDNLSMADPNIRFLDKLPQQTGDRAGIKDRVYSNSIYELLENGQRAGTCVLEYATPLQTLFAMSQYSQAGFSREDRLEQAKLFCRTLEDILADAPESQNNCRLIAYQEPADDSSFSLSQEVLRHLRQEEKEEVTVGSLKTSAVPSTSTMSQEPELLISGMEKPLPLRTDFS
# test_description: Fluorescence Thermal Shift assay
# Format: binding
# assay_context: 50 μM compound; STING 0.1 mg/ml; 20 minutes preincubation; read-out: [hSTING] FTS, ΔTm [° C.] for 50 μM

CCn1cc(CN(CCCn2ccnc2)Cc2ccncc2)c(=O)c2ccccc21 :: < 2.5 °C
COc1cc(CN(CCCn2ccnc2)Cc2coc3cc(O)ccc3c2=O)ccn1 :: > 2.5 °C

Give its ΔTm at 50 µM value. Item: "COc1ccc(CCCN(Cc2ccncc2)Cc2c(C)oc3c(C)c(C)ccc3c2=O)cn1"
< 2.5 °C
